test system: MCF7; assay: normalised growth rate inhibition (GR value) relative to DMSO control (GR (1 = untreated growth, 0 = cytostasis, <0 = cytotoxic)); higher = less growth inhibition; details: 1.11 µM; 72 h
The reader will find reported normalised growth rate inhibition values listed item by item below.
Respond with the number and no other words.

Solved cases below.
structure_smiles_string=CC[C@H](CO)Nc1nc(NCc2ccccc2)c2ncn(C(C)C)c2n1 measured_target=MCF7 reported_endpoint="normalised growth rate inhibition" numeric_result=0.818
structure_smiles_string=CCOc1cc2ncc(C#N)c(Nc3ccc(OCc4ccccn4)c(Cl)c3)c2cc1NC(=O)/C=C/CN(C)C measured_target=MCF7 reported_endpoint="normalised growth rate inhibition" numeric_result=0.419
structure_smiles_string=O=c1cc(N2CCOCC2)oc2c(-c3cccc4c3sc3ccccc34)cccc12 measured_target=MCF7 reported_endpoint="normalised growth rate inhibition" numeric_result=0.892

Next compound, normalised growth rate inhibition to be filled in.
I am curious: what normalised growth rate inhibition value has been reported for Cn1cc(C2=C(c3cn(C4CCN(Cc5ccccn5)CC4)c4ccccc34)C(=O)NC2=O)c2ccccc21 ?
0.946

---

tested on: MCF10A; assay: normalised growth rate inhibition (GR value) relative to DMSO control (GR (1 = untreated growth, 0 = cytostasis, <0 = cytotoxic)); higher = less growth inhibition; conditions: 3.33 µM; 72 h
Listing of entries alongside the reported normalised growth rate inhibition.
Form field (numeric): enter value without unit.

Worked set:
structure_smiles_string=CC(C)CC(=O)Nc1n[nH]c2c1CN(C(=O)C1CCN(C)CC1)C2(C)C numeric_result=-0.0512
structure_smiles_string=C[C@@H](Oc1cc(-c2cnn(C3CCNCC3)c2)cnc1N)c1c(Cl)ccc(F)c1Cl numeric_result=0.833
structure_smiles_string=CN1CCN(c2ccc3nc(-c4c(N)c5c(F)cccc5[nH]c4=O)[nH]c3c2)CC1 numeric_result=0.146

Proceeding to the next compound to report its normalised growth rate inhibition.
Entry CCOc1cc2ncc(C#N)c(Nc3ccc(F)c(Cl)c3)c2cc1NC(=O)/C=C/CN(C)C has what normalised growth rate inhibition?
0.111

---

Quick reference for normalised growth rate inhibition among some compounds
system: HS578T; experiment: normalised growth rate inhibition (GR value) relative to DMSO control (GR (1 = untreated growth, 0 = cytostasis, <0 = cytotoxic)); higher = less growth inhibition; details: 0.37 µM; 72 h
Could you keep your reply to the number by itself?

Previously resolved entries follow.
compound=CN1CCN(c2ccc3nc(-c4c(N)c5c(F)cccc5[nH]c4=O)[nH]c3c2)CC1 reported_endpoint="normalised growth rate inhibition" numeric_result=0.3
compound=Cn1cc(-c2[nH]c3cc(NC(=O)[C@H](N)C4CCCCC4)cc4c3c2C=NNC4=O)cn1 reported_endpoint="normalised growth rate inhibition" numeric_result=0.107
compound=Cc1cc(C(=O)NOCCO)c(Nc2ccc(I)cc2F)n(C)c1=O reported_endpoint="normalised growth rate inhibition" numeric_result=0.217
compound=COc1cc(OC)cc(-c2ccc3ncc4ccc(=O)n(-c5ccc(N6CCNCC6)c(C(F)(F)F)c5)c4c3c2)c1 reported_endpoint="normalised growth rate inhibition" numeric_result=0.765
compound=CN(C)C/C=C/C(=O)Nc1cc2c(Nc3ccc(F)c(Cl)c3)ncnc2cc1O[C@H]1CCOC1 reported_endpoint="normalised growth rate inhibition" numeric_result=0.944

What value of measured normalised growth rate inhibition is listed for Nc1ccc(C(=O)Nc2cccc(-c3nc(N4CCOCC4)c4oc5ncccc5c4n3)c2)cn1 ?
0.972

Entry C=CC(=O)Nc1cccc(Nc2nc(NC3CCC(N(C)C)CC3)nc3c2ncn3C(C)C)c1 (stereo not drawn) has what normalised growth rate inhibition?
-0.127

May I ask what normalised growth rate inhibition has been recorded for CN(c1ncccc1CNc1nc(Nc2ccc3c(c2)CC(=O)N3)ncc1C(F)(F)F)S(C)(=O)=O ?
0.735

---

tested on: BT20; test: normalised growth rate inhibition (GR value) relative to DMSO control (GR (1 = untreated growth, 0 = cytostasis, <0 = cytotoxic)); higher = less growth inhibition; details: 1.11 µM; 72 h
Given measured normalised growth rate inhibition, output class 1 if it is greater than or equal to 0.8 and class 0 if not.

Please review the entries below; each comes with its answer.
structure_smiles_string=c1ccc2c(-c3cnn4cc(-c5ccc(N6CCNCC6)cc5)cnc34)ccnc2c1 assigned_label="class 0"
structure_smiles_string=FC(F)c1nc2ccccc2n1-c1nc(N2CCOCC2)nc(N2CCOCC2)n1 assigned_label="class 0"
structure_smiles_string=CNC(=O)c1ccc(Nc2cc(Nc3ccccc3S(=O)(=O)C(C)C)c3cc[nH]c3n2)nc1 assigned_label="class 0"
structure_smiles_string=N#CCNC(=O)c1ccc(-c2ccnc(Nc3ccc(N4CCOCC4)cc3)n2)cc1 assigned_label="class 0"
structure_smiles_string=O=C(NC1CCNCC1)c1n[nH]cc1NC(=O)c1c(Cl)cccc1Cl assigned_label="class 0"
structure_smiles_string=Cc1ccc2nc(NCCN)c3ncc(C)n3c2c1 assigned_label="class 1"
structure_smiles_string=COc1cc(C(=O)N2CCC(N3CCN(C)CC3)CC2)ccc1Nc1ncc2c(n1)N(C)c1ccccc1C(=O)N2C assigned_label="class 0"
structure_smiles_string=C#Cc1cccc(Nc2ncnc3cc(OCCOC)c(OCCOC)cc23)c1 assigned_label="class 1"
structure_smiles_string=COc1cc2ncnc(-n3nc(-c4ccccn4)nc3N)c2cc1OC assigned_label="class 1"
structure_smiles_string=Cc1cc(Nc2cc(N3CCN(C)CC3)nc(Sc3ccc(NC(=O)C4CC4)cc3)n2)n[nH]1 assigned_label="class 0"

Could you tell me if the measured normalised growth rate inhibition of CC[C@@H]1C(=O)N(C)c2cnc(Nc3ccc(C(=O)NC4CCN(C)CC4)cc3OC)nc2N1C1CCCC1 reaches 0.8 or more?
class 0

Hi team, for CC[C@H](CO)Nc1nc(NCc2ccccc2)c2ncn(C(C)C)c2n1 , is the recorded normalised growth rate inhibition at or above 0.8?
class 1

Hello, I need to know if O=C1c2c(O)ccc(O)c2C(=O)c2c(NCCNCCO)ccc(NCCNCCO)c21 has measured normalised growth rate inhibition not below 0.8. Thanks!
class 0

// inclusive: normalised growth rate inhibition at least 0.8? input: COc1cc(OC)cc(-c2ccc3ncc4ccc(=O)n(-c5ccc(N6CCNCC6)c(C(F)(F)F)c5)c4c3c2)c1
class 0

Check this compound for normalised growth rate inhibition at or above 0.8: Cn1c(=O)n(-c2ccc(C(C)(C)C#N)cc2)c2c3cc(-c4cnc5ccccc5c4)ccc3ncc21
class 0

hey, is normalised growth rate inhibition for this one >= 0.8? CNC(=O)c1cc(Oc2ccc(NC(=O)Nc3ccc(Cl)c(C(F)(F)F)c3)cc2)ccn1
class 1

Hi, just wondering whether CN1CCN(c2ccc3nc(-c4c(N)c5c(F)cccc5[nH]c4=O)[nH]c3c2)CC1 shows normalised growth rate inhibition of 0.8 or higher.
class 0

---

test system: MCF7; experiment: normalised growth rate inhibition (GR value) relative to DMSO control (GR (1 = untreated growth, 0 = cytostasis, <0 = cytotoxic)); higher = less growth inhibition; details: 3.33 µM; 72 h
# normalised growth rate inhibition >= 0.5 gives YES, anything below gives NO

molecule="CC1=C(CO)C(=O)O[C@@H]([C@@H](C)[C@H]2CC[C@H]3[C@@H]4C[C@H]5O[C@]56[C@@H](O)C=CC(=O)[C@]6(C)[C@H]4CC[C@]23C)C1 [withaferin-a]" assigned_label=NO
molecule=O=C(NOCC1CC1)c1ccc(F)c(F)c1Nc1ccc(I)cc1Cl assigned_label=YES
molecule="Cc1cc([C@@H](C)Nc2ccccc2C(=O)O)c2nc(N3CCOCC3)cc(=O)n2c1 [AZD-6482]" assigned_label=YES
molecule=CN(c1ccccc1CNc1nc(Nc2ccc3c(c2)CC(=O)N3)ncc1C(F)(F)F)S(C)(=O)=O assigned_label=NO
molecule="CCCS(=O)(=O)Nc1ccc(F)c(C(=O)c2c[nH]c3ncc(-c4ccc(Cl)cc4)cc23)c1F [vemurafenib]" assigned_label=YES

Can Cc1ccc(F)c(NC(=O)Nc2ccc(-c3cccc4[nH]nc(N)c34)cc2)c1 [linifanib] be said to have normalised growth rate inhibition at or above 0.5?
YES

Hi team, for COc1cc2ncnc(-n3nc(-c4ccccn4)nc3N)c2cc1OC , is the recorded normalised growth rate inhibition at or above 0.5?
YES

Is normalised growth rate inhibition at least 0.5? Consider CC(=O)Nc1cccc(-n2c(=O)n(C3CC3)c(=O)c3c(Nc4ccc(I)cc4F)n(C)c(=O)c(C)c32)c1 [trametinib]
NO

Check if normalised growth rate inhibition >= 0.5 (inclusive). Item: COCC(=O)NC/C=C/c1ccc2ncnc(Nc3ccc(Oc4ccc(C)nc4)c(C)c3)c2c1
YES

API: above_or_equal(metric=normalised growth rate inhibition, cutoff=0.5) for item Oc1cccc(-c2nc(N3CCOCC3)c3oc4ncccc4c3n2)c1 [PI-103]
NO

Hello, I need to know if CCOc1cc2ncc(C#N)c(Nc3ccc(OCc4ccccn4)c(Cl)c3)c2cc1NC(=O)/C=C/CN(C)C [neratinib] has measured normalised growth rate inhibition not below 0.5. Thanks!
NO

Is reported normalised growth rate inhibition greater than or equal to 0.5 here: COc1cc(N2CCC(C(N)=O)CC2)ccc1Nc1nc(N)c(Cl)c(Nc2ccccc2S(=O)(=O)C(C)C)n1 [HG-5-88-01]
NO

Does the reported normalised growth rate inhibition for CN1CC[C@H](c2c(O)cc(O)c3c(=O)cc(-c4ccccc4Cl)oc23)[C@H](O)C1 [alvocidib] fall at or above the 0.5 mark?
NO

Could you verify whether the entry CNC(=O)Nc1ccc(-c2nc(N3CC4CCC(C3)O4)c3cnn(C4CCC5(CC4)OCCO5)c3n2)cc1 shows normalised growth rate inhibition of no less than 0.5?
NO

Values were extracted from the supplement of paper PMC5662764.
